Listing: % double-positive cells vs WT of selected binders
# assayedSystem: T1, mTfR-1 I198A on Expi293 cells (mouse, UniProt Q62351 1-763)
# T1 construct: whole, on cells
# T1 sequence (Q62351 whole entry I198A): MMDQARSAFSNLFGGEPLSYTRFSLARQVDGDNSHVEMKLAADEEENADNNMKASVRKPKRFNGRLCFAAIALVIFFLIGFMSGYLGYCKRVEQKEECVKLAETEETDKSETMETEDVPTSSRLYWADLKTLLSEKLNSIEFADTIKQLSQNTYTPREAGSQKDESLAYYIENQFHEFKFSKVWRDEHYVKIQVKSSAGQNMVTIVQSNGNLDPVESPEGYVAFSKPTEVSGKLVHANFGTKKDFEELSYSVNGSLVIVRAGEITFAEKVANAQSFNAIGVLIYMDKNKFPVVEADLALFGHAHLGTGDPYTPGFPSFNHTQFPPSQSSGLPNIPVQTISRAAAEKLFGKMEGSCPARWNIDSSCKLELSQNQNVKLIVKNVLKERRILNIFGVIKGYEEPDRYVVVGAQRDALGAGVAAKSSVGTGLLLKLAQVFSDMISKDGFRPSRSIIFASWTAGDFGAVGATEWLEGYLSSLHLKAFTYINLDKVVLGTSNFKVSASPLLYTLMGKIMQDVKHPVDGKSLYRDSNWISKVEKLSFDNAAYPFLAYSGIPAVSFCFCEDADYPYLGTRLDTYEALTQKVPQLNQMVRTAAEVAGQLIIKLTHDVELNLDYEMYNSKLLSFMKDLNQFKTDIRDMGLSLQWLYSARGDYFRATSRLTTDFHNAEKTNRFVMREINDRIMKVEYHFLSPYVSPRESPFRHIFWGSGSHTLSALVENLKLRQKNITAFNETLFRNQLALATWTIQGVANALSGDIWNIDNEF
# protocolNotes: FACS, transfected Expi293 cells
Reply with just the number (in %).

For orientation, consider the following solved cases.
1. Clone C variant 18 VNAR-hFc (Fc fusion, not shown: a dimerising Fc or GST, also called Clone C v18; Clone C var; 18) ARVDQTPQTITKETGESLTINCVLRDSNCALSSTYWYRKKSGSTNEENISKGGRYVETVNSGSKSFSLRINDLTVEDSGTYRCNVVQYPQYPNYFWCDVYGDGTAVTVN: 79
2. 8D3 antibody (anti-mouse TfR-1 control; 8D3-hFc formatted antibody) (antibody, V domains shown) VH: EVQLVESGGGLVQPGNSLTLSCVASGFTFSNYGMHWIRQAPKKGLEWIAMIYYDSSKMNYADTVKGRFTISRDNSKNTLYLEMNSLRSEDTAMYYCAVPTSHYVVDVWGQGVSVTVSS VL: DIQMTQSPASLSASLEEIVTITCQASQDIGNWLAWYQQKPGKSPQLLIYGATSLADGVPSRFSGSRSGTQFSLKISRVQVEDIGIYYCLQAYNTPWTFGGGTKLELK: 94
3. Clone C variant 13 VNAR-hFc (Fc fusion, not shown: a dimerising Fc or GST, also called Clone C v13; Clone C var; 13) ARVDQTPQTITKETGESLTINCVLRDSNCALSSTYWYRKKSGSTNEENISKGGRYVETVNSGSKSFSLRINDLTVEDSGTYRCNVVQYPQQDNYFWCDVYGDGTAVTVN: 73

Continue with the binder presented below.
Need % double-positive cells vs WT, item Clone C VNAR-hFc fusion (Fc fusion, not shown: a dimerising Fc or GST, bivalent VNAR-Fc; also called Clone C-hFc) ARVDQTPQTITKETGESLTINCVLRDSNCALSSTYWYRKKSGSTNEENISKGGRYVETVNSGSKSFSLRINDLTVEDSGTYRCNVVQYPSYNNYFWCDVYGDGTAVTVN 239
